targetOrTestSystem: FAAH (Mus musculus, UniProt O08914)
Sequence (O08914 whole entry): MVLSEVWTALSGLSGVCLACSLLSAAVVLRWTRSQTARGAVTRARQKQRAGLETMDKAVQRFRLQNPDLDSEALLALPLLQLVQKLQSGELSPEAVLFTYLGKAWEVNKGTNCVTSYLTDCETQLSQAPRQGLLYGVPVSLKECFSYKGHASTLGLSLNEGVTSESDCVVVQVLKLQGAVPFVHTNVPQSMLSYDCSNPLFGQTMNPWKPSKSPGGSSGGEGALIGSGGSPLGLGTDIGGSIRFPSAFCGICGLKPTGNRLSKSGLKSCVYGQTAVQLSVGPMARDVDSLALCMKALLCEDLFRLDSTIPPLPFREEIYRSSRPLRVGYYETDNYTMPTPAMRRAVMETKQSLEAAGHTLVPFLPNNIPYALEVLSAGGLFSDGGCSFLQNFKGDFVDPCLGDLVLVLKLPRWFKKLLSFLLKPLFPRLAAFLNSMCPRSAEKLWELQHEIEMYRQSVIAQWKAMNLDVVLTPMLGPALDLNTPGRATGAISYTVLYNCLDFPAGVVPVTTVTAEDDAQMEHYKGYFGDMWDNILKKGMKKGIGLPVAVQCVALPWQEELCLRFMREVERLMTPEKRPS
protocolDescription: In vitro competitive activity-based protein profiling (Table 2, % inhibition at 1 μM)
Format: biochemical
measurementConditions: read-out: % Inhibition at 1 μM FAAH
// values below are reported inhibition at 1 µM

| compound | targetOrTestSystem | inhibition at 1 µM |
| --- | --- | --- |
| CC(C)c1ccc(CN2CC3CN(C(=O)ON4C(=O)CCC4=O)CC3C2)c(N2CCOCC2)c1 (stereo not shown) | FAAH (Mus musculus, UniProt O08914) | < 25% |
| O=C(OC(C(F)(F)F)C(F)(F)F)N1CC2CN(Cc3ccc(-c4ccccc4)cc3)CC2C1 (stereo not shown) | FAAH (Mus musculus, UniProt O08914) | 25 to 75% |
| O=C(OC(C(F)(F)F)C(F)(F)F)N1CC2CN(Cc3ccc(N4CCOCC4)cc3OC(F)(F)F)CC2C1 (stereo not shown) | FAAH (Mus musculus, UniProt O08914) | > 75% |
| CC(=O)N1CCC(c2nn(C(C)C)cc2CN2CC3CN(C(=O)ON4C(=O)CCC4=O)CC3C2)CC1 (stereo not shown) | FAAH (Mus musculus, UniProt O08914) | < 25% |
| O=C(OC(C(F)(F)F)C(F)(F)F)N1CC2CN(Cc3ccccc3-c3ccccc3)CC2C1 (stereo not shown) | FAAH (Mus musculus, UniProt O08914) | 25 to 75% |
| O=C(ON1C(=O)CCC1=O)N1CC2CN(Cc3ccc(N4CCOCC4)cc3C(F)(F)F)CC2C1 (stereo not shown) | FAAH (Mus musculus, UniProt O08914) | 25 to 75% |
| Cn1cc(CN2CC3CN(C(=O)ON4C(=O)CCC4=O)CC3C2)c(-c2ccccc2Cl)n1 (stereo not shown) | FAAH (Mus musculus, UniProt O08914) | < 25% |
| O=C(OC(C(F)(F)F)C(F)(F)F)N1CC2CN(Cc3cccc(N4CCC5(CCOC5)C4)c3C(F)(F)F)CC2C1 (stereo not shown) | FAAH (Mus musculus, UniProt O08914) | < 25% |
| Cc1ccc(CN2CC3CN(C(=O)OC(C(F)(F)F)C(F)(F)F)CC3C2)cc1-c1ccccc1 (stereo not shown) | FAAH (Mus musculus, UniProt O08914) | 25 to 75% |
| Cc1c(CN2CC3CN(C(=O)OC(C(F)(F)F)C(F)(F)F)CC3C2)cccc1C(=O)N1CCCC1 (stereo not shown) | FAAH (Mus musculus, UniProt O08914) | < 25% |
| O=C(OC(C(F)(F)F)C(F)(F)F)N1CC2CN(Cc3ccc(C(F)F)cc3N3CCOCC3)CC2C1 (stereo not shown) | FAAH (Mus musculus, UniProt O08914) | < 25% |
| CCN1CCN(c2c(C)cccc2CN2CC3CN(C(=O)OC(C(F)(F)F)C(F)(F)F)CC3C2)CC1 (stereo not shown) | FAAH (Mus musculus, UniProt O08914) | < 25% |
| CCn1cc(CN2CC3CN(C(=O)OC(C(F)(F)F)C(F)(F)F)CC3C2)c(-c2ccc(N3CCCCC3)cc2)n1 (stereo not shown) | FAAH (Mus musculus, UniProt O08914) | < 25% |
